- tgt: hNaV1.2 (SCN2A) (Homo sapiens, UniProt Q99250)
- Construct: expressed in transfected cells
- Sequence (Q99250 whole entry): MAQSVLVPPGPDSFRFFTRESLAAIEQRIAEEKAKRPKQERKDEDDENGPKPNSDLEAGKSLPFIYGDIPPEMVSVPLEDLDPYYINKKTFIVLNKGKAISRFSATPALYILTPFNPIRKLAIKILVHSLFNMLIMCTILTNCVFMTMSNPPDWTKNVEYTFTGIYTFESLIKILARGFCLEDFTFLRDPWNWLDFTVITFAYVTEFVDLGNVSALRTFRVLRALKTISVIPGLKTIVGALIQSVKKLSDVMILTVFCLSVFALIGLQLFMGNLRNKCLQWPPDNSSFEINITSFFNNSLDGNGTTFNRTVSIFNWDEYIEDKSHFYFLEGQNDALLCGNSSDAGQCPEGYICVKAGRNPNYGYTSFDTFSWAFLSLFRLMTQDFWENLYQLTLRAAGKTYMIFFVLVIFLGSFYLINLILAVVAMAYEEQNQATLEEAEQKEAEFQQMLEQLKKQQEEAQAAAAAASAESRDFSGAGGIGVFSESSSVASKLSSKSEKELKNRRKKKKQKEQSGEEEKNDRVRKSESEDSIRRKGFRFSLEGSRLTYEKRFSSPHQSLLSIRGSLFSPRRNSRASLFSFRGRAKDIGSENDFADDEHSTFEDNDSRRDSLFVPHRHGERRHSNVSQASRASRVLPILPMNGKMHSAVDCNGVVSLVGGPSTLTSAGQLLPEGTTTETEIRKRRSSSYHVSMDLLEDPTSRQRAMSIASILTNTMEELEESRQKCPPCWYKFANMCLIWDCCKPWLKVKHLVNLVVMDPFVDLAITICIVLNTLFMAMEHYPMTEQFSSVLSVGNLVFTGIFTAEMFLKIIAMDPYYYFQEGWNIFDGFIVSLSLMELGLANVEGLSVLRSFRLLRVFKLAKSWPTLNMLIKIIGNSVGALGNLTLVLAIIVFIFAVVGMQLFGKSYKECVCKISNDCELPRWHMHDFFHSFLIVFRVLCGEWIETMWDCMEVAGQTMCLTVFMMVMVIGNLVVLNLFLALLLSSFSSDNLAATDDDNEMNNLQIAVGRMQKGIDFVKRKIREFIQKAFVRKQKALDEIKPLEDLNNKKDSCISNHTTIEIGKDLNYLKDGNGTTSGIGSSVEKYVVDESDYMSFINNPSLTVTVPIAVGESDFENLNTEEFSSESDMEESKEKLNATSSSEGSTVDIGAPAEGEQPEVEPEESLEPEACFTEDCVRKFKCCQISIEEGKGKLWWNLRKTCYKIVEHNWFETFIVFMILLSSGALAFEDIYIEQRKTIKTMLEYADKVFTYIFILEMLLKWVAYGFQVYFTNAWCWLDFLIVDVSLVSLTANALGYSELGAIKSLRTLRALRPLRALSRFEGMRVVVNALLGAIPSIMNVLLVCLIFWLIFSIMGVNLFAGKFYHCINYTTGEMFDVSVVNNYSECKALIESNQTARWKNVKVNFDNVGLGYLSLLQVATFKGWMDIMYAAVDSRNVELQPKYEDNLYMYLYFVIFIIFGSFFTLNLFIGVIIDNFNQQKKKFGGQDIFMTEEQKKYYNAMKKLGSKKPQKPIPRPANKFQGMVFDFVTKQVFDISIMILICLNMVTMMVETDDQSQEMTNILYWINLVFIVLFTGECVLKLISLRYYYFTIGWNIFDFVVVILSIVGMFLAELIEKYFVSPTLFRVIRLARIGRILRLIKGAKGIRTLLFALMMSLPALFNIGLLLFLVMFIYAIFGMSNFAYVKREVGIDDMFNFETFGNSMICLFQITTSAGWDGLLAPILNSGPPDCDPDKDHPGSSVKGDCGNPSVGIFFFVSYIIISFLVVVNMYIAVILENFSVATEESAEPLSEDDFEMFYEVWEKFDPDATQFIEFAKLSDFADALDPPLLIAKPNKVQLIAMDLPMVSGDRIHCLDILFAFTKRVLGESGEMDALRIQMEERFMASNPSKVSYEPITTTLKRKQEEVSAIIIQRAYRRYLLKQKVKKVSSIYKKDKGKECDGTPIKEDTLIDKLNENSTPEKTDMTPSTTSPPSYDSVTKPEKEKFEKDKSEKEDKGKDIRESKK
- Sequence (Q07699 19-218 partner): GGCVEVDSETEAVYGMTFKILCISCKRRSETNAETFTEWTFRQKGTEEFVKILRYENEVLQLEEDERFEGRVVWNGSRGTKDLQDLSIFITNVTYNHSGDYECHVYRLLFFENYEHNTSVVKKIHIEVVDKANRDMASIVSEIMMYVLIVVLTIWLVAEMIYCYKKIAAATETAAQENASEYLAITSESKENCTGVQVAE
- Sequence (O60939 30-215 partner): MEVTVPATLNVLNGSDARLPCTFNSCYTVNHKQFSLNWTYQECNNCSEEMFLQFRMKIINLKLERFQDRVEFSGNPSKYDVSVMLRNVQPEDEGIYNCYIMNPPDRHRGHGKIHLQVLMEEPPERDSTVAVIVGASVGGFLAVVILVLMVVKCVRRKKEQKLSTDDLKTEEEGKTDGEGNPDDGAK
- assayNotes: Use-dependent inhibition of the CNS NaV1.2 sodium channel
- Format: cell-based
- conditionInfo: HEK-293; % inhibition, use-dependent block at 1 uM; 25 Hz; read-out: Nav1.2 UDB 25 Hz 1 uM
Please use Met whenever inhibition at 1 µM is not below 30%, and Not met whenever it is.

Some solved entries appear below for comparison.
{"compound": "COc1cc(OC(F)(F)F)ccc1-c1ccc2c(c1)CN(CCc1ncccn1)C(=O)O2 [Example 18]", "class": "Not met"}
{"compound": "CCCOc1cc(C(F)(F)F)ccc1-c1ccc2c(c1)CN(Cc1ncccn1)C(=O)O2 [Example 27]", "class": "Met"}
{"compound": "O=C1Oc2ccc(-c3ccc(OC(F)(F)F)cc3)cc2CN1CCc1ncccn1 [Example 16]", "class": "Not met"}

Does inhibition at 1 µM meet or surpass 30% for Cc1cc(OC(F)(F)F)ccc1-c1ccc2c(c1)CN(Cc1ccccn1)C(=O)O2 [Example 23] ?
Not met

Given Cc1csc(CN2Cc3cc(-c4ccc(Cl)c(F)c4)ccc3OC2=O)n1 [Example 59] , state whether its inhibition at 1 µM is at least 30%.
Not met

Given CCOc1cc(C(F)(F)F)ccc1-c1ccc2c(c1)CN(Cc1ncccn1)C(=O)O2 [Example 35] , state whether its inhibition at 1 µM is at least 30%.
Met

Reported inhibition at 1 µM at or above 30%? Cc1cnc(CN2Cc3cc(-c4ccc(OC(F)(F)F)cc4F)ccc3OC2=O)nc1 [Example 14]
Not met

Can Cc1cc(-c2ccc3c(c2)CN(Cc2ncccn2)C(=O)O3)ccc1OC(F)(F)F [Example 5] be said to have inhibition at 1 µM at or above 30%?
Not met

Given Cc1csc(CN2Cc3cc(-c4ccc(Cl)c(Cl)c4)ccc3OC2=O)n1 [Example 56] , state whether its inhibition at 1 µM is at least 30%.
Not met

Item Cc1csc(CN2Cc3cc(-c4ccc(OC(F)(F)F)c(F)c4)ccc3OC2=O)n1 [Example 53] with inhibition at 1 µM of 30% or above?
Met

Confirm if inhibition at 1 µM reported for the compound Cc1cnc(CN2Cc3cc(-c4ccc(C(F)(F)F)cc4F)ccc3OC2=O)nc1 [Example 41] is 30% or above.
Not met

Entry Cc1ccnc(CN2Cc3cc(-c4ccc(OC(F)(F)F)cc4C)ccc3OC2=O)n1 [Example 33] : is its inhibition at 1 µM no less than 30%?
Not met

Has Cc1ccnc(CN2Cc3cc(-c4ccc(OC(F)(F)F)cc4)ccc3OC2=O)n1 [Example 29] a recorded inhibition at 1 µM greater than or equal to 30%?
Met
